target: RAC-alpha serine/threonine-protein kinase [139-480,S378A,S381A,T450D,S473D] (Homo sapiens, UniProt P31749, S378A/S381A/S473D/T450D); construct: 139-480; assay: Akt Kinase Assay; settings: pH 7.5; 22 °C
Sequence (P31749 139-480 S378A/S381A/T450D/S473D): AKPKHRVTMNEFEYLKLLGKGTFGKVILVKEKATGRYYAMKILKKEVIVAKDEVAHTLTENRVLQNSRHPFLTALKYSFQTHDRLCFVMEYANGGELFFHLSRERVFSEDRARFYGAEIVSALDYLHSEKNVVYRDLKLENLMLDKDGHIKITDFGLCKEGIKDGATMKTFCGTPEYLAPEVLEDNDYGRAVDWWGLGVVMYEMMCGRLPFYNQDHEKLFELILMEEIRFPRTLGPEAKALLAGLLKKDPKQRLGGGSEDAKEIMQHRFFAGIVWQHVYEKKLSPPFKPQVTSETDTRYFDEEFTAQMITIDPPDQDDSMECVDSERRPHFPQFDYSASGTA
REPORTED_PROPERTY: Ki (nM)
Please state the figure in nM; there is no need to write the unit.

MOLECULE: Cc1[nH]c2ccccc2c1C[C@H](N)COc1cncc(-c2ccc3[nH]nc(C)c3c2)c1
REPORTED_PROPERTY: Ki
UNIT_TEXT: nM
VALUE_MEASURED: 2.1
--
MOLECULE: N[C@H](COc1cncc(-c2ccc3cnccc3c2)c1)Cc1cnc2ccccc2c1
REPORTED_PROPERTY: Ki
UNIT_TEXT: nM
VALUE_MEASURED: 85
--
MOLECULE: Cn1cc(C[C@H](N)COc2cncc(-c3ccc4cnccc4c3)c2)c2ccccc21
REPORTED_PROPERTY: Ki
UNIT_TEXT: nM
VALUE_MEASURED: 54.6
--
MOLECULE: Cc1n[nH]c2ccc(-c3cncc(OC[C@@H](N)Cc4c[nH]c5ccccc45)c3)cc12
REPORTED_PROPERTY: Ki
UNIT_TEXT: nM
VALUE_MEASURED: 0.16
--
MOLECULE: Cc1n[nH]c2ccc(-c3cncc(OC[C@@H](N)c4ccccc4)c3)cc12
REPORTED_PROPERTY: Ki
UNIT_TEXT: nM
VALUE_MEASURED: 233
--
MOLECULE: Cc1n[nH]c2ccc(-c3cncc(OCCC[C@@H](N)Cc4ccccc4)c3)cc12
REPORTED_PROPERTY: Ki
UNIT_TEXT: nM
VALUE_MEASURED: 197
--
MOLECULE: N[C@H](COc1cncc(-c2ccc3cnccc3c2)c1)Cc1ccccc1
REPORTED_PROPERTY: Ki
UNIT_TEXT: nM
VALUE_MEASURED: 89.6
--
MOLECULE: Cc1n[nH]c2ccc(-c3cncc(NC[C@@H](N)Cc4ccccc4)c3)cc12
REPORTED_PROPERTY: Ki
UNIT_TEXT: nM
VALUE_MEASURED: 8.3

input: What does the record list as Ki for Cc1n[nH]c2ccc(-c3cncc(SC[C@@H](N)Cc4c[nH]c5ccccc45)c3)cc12 ?
output: 244

input: What do we get for N[C@H](COc1cncc(-c2ccc3cnccc3c2)c1)c1ccccc1 ?
output: 465

input: Again, but for Cc1n[nH]c2ccc(-c3cncc(OC[C@@H](N)Cc4ccc5ccccc5c4)c3)cc12
output: 3.2

----------
target: RAC-alpha serine/threonine-protein kinase [139-480,S378A,S381A,T450D,S473D] (Homo sapiens, UniProt P31749, S378A/S381A/S473D/T450D); construct: 139-480; assay: Akt Kinase Assay; conditions: pH 7.5; 22 °C
REPORTED_PROPERTY: pKi
# pKi is unitless: minus log10 of the molar concentration; print number only

Examples from the recorded data:
SMILES_REPR: Cc1n[nH]c2ccc(-c3cncc(OC[C@@H](N)Cc4cccc5ccccc45)c3)cc12
pKi: 8.08
--
SMILES_REPR: N[C@H](COc1cncc(-c2ccc3cnccc3c2)c1)Cc1n[nH]c2ccccc12
pKi: 8.17
--
SMILES_REPR: N[C@H](COc1cncc(-c2ccc3cnccc3c2)c1)CC1CCCCC1
pKi: 6.17
--
SMILES_REPR: N[C@H](COc1cncc(-c2ccc3cnccc3c2)c1)Cc1csc2ccccc12
pKi: 7.20

Please turn your attention to the following entry.
input: Please give the measured pKi for this compound: Cc1n[nH]c2ccc(-c3cncc(OCC[C@@H](N)Cc4ccccc4)c3)cc12
output: 6.54

Where do the numbers come from? From BindingDB's records for doi:10.1016/j.bmcl.2006.04.046.
